# target_system: human GPCR142 (human, UniProt Q8TDU9 1-374)
# Sequence (Q8TDU9 whole entry L329S, form in doubt): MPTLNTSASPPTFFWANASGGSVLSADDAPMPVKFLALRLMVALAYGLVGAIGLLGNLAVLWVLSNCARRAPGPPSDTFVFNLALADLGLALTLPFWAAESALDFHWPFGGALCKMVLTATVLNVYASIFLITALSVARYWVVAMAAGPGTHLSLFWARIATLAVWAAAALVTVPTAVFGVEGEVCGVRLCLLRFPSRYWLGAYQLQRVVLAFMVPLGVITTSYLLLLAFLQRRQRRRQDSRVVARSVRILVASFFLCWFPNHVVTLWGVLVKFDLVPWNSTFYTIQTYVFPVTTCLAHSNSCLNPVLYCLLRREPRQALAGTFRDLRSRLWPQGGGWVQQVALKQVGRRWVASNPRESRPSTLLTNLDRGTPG
# protocol_description: competition with 100 pM [125I]-relaxin-3, COS-7 membranes with human GPCR142
Ends that are not written are not given here.
IC50 less than 3 nM is T; IC50 greater than or equal to 3 nM is F.

INSERT INTO measurements (binder, category_label) VALUES
  ('Relaxin-3/INSL6 (R3/I6) chimeric polypeptide (ligand, human, disulfide (positions not given here), domain: A-chain; Two chains joined by disulfide bonds; FLAG tag removed) chain 1: RAAPYGVRLCGREFIRAVIFTCGGSRW chain 2: GYSEKCCLTGCTKEELSIAC', 'F'),
  ('Relaxin-3/INSL5 (R3/I5) chimeric polypeptide (ligand, disulfide (positions not given here); also: two chains joined by disulfide bonds, places not given here, Two chains joined by disulfide bonds; FLAG tag removed with enterokinase; also called R3/I5 chimera; I5/R3) chain 1: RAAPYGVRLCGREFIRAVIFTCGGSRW chain 2: DLQTLCCTDGCSMTDLSALC', 'T'),
  ('Relaxin-3/Relaxin-1 (R3/R1) chimeric polypeptide (ligand, human, disulfide (positions not given here), domain: A-chain; Two chains joined by disulfide bonds; Made in COS-7 cells with furin, FLAG tag removed with enterokinase) chain 1: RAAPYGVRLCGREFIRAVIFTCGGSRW chain 2: RPYVALFEKCCLIGCTKRSLAKYC', 'T'),
  ('Relaxin-3/INSL3 (R3/I3) chimeric polypeptide (ligand, human, disulfide (positions not given here), domain: A-chain; Two chains joined by disulfide bonds; FLAG tag removed) chain 1: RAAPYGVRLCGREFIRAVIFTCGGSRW chain 2: NPARYCCLSGCTQQDLLTLC', 'F'),
  ('Relaxin-3/Relaxin-2 (R3/R2) chimeric polypeptide (ligand, human, disulfide (positions not given here); also: two chains joined by disulfide bonds, pairing not given here, domain: A-chain; Two chains joined by disulfide bonds; FLAG tag removed) chain 1: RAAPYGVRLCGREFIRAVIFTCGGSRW chain 2: QLYSALANKCCHVGCTKRSLARFC', 'T'),
  ('Relaxin-3/INSL4 (R3/I4) chimeric polypeptide (ligand, human, disulfide (positions not given here), domain: A-chain; Two chains joined by disulfide bonds; FLAG tag removed) chain 1: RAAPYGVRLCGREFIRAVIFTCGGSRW chain 2: FDPFCCEVICDDGTSVKLC', 'F');
